Test system: HeLa-MaTu-ADR cells
assay: Proliferation assay, crystal violet staining
Type: cell-based
details: Homo sapiens, 96 h, 4 days incubation, read-out: Inhibition of HeLa-MaTu-ADR cell proliferation
pIC50: −log10 of the molar value.
readout_name: pIC50

Quick check: pIC50 of C[C@@H]1COCCN1c1cc(N2CCN(C)C(=O)C2)c2ccnc(-c3ccn[nH]3)c2n1 ? < 5.52

Next compound up: CCOP(C)(=O)c1cc(N2CCOC[C@H]2C)nc2c(-c3ccn[nH]3)nccc12 (stereo partly shown) < 5.52

Next compound up: c1cc2c(C3CCOCC3)cc(N3CCOCC3)nc2c(-c2cc[nH]n2)n1 5.66

Next compound up: CS(=O)(=O)c1cccc(-c2cc(N3CCOCC3)nc3c(-c4cc[nH]n4)nccc23)c1 < 5.52

---

Tested on: HeLa-MaTu-ADR cells
assay: Proliferation assay, crystal violet staining
Format: cell-based
details: Homo sapiens, 96 h, 4 days incubation, read-out: Inhibition of HeLa-MaTu-ADR cell proliferation
Structures can show the parent of a compound that is named as a salt.
readout_name: IC50

Quick check: IC50 of Cn1nccc1-c1cc(N2CCOCC2)nc2c(-c3ccn[nH]3)nccc12 ? 940 nM

Next molecule up: Cc1cc(S(C)(=O)=O)ncc1-c1cc(N2CCOC[C@H]2C)nc2c(-c3ccn[nH]3)nccc12 2300 nM

Next molecule up: C[C@@H]1COCCN1c1cc(N=S2(=O)CCCC2)c2ccnc(-c3ccn[nH]3)c2n1 791 nM

Next molecule up: CS(=O)(=O)c1ccccc1-c1cc(N2CCOCC2)nc2c(-c3cc[nH]n3)nccc12 [Example 8, Hydrochloride] > 3000 nM

Next molecule up: C[C@@H]1COCCN1c1cc(-c2ccn[nH]2)c2ccnc(-c3ccn[nH]3)c2n1 1490 nM

Next molecule up: C[C@@H]1COCCN1c1cc(N=S2(=O)CCOCC2)c2ccnc(-c3ccn[nH]3)c2n1 1170 nM

Next molecule up: C[C@@H]1COCCN1c1cc(-c2ccc(F)nc2F)c2ccnc(-c3ccn[nH]3)c2n1 594 nM

Next molecule up: C[C@@H]1COCCN1c1cc(-c2cccc(S(C)(=N)=O)c2)c2ccnc(-c3ccn[nH]3)c2n1 (stereo partly drawn) > 3000 nM

Next molecule up: C[C@@H]1COCCN1c1cc(-c2ccc(S(C)(=N)=O)cc2)c2ccnc(-c3ccn[nH]3)c2n1 (stereo partly drawn) > 3000 nM

Next molecule up: Cc1nc(S(C)(=O)=O)ccc1-c1cc(N2CCOC[C@H]2C)nc2c(-c3ccn[nH]3)nccc12 1790 nM

Next molecule up: C[C@@H]1COCCN1c1cc(OCCCS(C)(=O)=O)c2ccnc(-c3ccn[nH]3)c2n1 > 3000 nM

Next molecule up: CS(=O)(=O)c1ccc(-c2cc(N3CCOCC3)nc3c(-c4ccn[nH]4)nccc23)c(F)c1 3410 nM

Next molecule up: CC(C)Oc1cc(N2CCOC[C@H]2C)nc2c(-c3cc[nH]n3)nccc12 1800 nM

Next molecule up: C[C@@H]1COCCN1c1cc(-c2ccc(S(C)(=O)=O)cc2F)c2ccnc(-c3ccn[nH]3)c2n1 > 1000 nM

Next molecule up: c1cc(-c2nccc3c(N4CCn5ccnc5C4)cc(N4CCOCC4)nc23)[nH]n1 > 3000 nM

Next molecule up: O=S1(=O)CCCN1c1cc(N2CCOCC2)nc2c(-c3ccn[nH]3)nccc12 > 3000 nM

Next molecule up: C[C@@H]1COCCN1c1cc(C2(S(C)(=O)=O)CC2)c2ccnc(-c3ccn[nH]3)c2n1 882 nM

Next molecule up: CC(C)S(=O)(=O)c1cc(N2CCOCC2)nc2c(-c3ccn[nH]3)nccc12 965 nM

Next molecule up: CCS(=O)(CC)=Nc1cc(N2CCOC[C@H]2C)nc2c(-c3ccn[nH]3)nccc12 595 nM

Next molecule up: C[C@@H]1COCCN1c1cc(S(C)(=O)=O)c2ccnc(-c3ccn[nH]3)c2n1 > 3000 nM

Next molecule up: Cc1ccc(-c2cc(N3CCOC[C@H]3C)nc3c(-c4ccn[nH]4)nccc23)cn1 291 nM

Next molecule up: CSc1cc(N2CCOC[C@H]2C)nc2c(-c3ccn[nH]3)nccc12 1530 nM

Next molecule up: COc1cc(N2CCOCC2)nc2c(-c3cc[nH]n3)nccc12 > 10000 nM

Next molecule up: CN=S(C)(=O)c1ccc(-c2cc(N3CCOCC3)nc3c(-c4ccn[nH]4)nccc23)cc1 (stereo not drawn) > 3000 nM

Next molecule up: C[C@@H]1COCCN1c1cc(C2CC2)c2ccnc(-c3cc[nH]n3)c2n1 498 nM

Next molecule up: COc1ncccc1-c1cc(N2CCOC[C@H]2C)nc2c(-c3ccn[nH]3)nccc12 993 nM

Next molecule up: C[C@@H]1COCCN1c1cc(N2CCOCC2)c2ccnc(-c3ccn[nH]3)c2n1 522 nM

Next molecule up: N#Cc1cc(N2CCOCC2)nc2c(-c3cc[nH]n3)nccc12 > 3000 nM

Next molecule up: C=C(C)c1cc(N2CCOCC2)nc2c(-c3cc[nH]n3)nccc12 1300 nM

Next molecule up: C[C@@H]1COCCN1c1cc(-c2ccc(S(C)(=O)=O)cc2)c2ccnc(-c3cc[nH]n3)c2n1 > 1000 nM

Next molecule up: CC(C)[S+]([O-])c1cc(N2CCOCC2)nc2c(-c3ccn[nH]3)nccc12 (stereo not drawn) > 3000 nM

Next molecule up: CC(C)Oc1cc(N2CCOCC2)nc2c(-c3cc[nH]n3)nccc12 2260 nM

Next molecule up: CC(C)S(=O)(=O)c1ccc(-c2cc(N3CCOC[C@H]3C)nc3c(-c4ccn[nH]4)nccc23)cc1 2150 nM

---

Tested on: NCI-H460 cells
assay: Proliferation assay, crystal violet staining
details: Homo sapiens, NCI-H460, 96 h, read-out: Inhibition of NCI-H460 cell proliferation, NCI-H460 cells, 4 days incubation
readout_name: IC50 (nM)
# value in nM; strip the unit string

Quick check: IC50 of CC(C)Oc1cc(N2CCOC[C@H]2C)nc2c(-c3cc[nH]n3)nccc12 ? 391

Next compound up: C=C(C)c1cc(N2CCOCC2)nc2c(-c3cc[nH]n3)nccc12 447

Next compound up: CC(C)S(=O)(=O)c1cc(N2CCOCC2)nc2c(-c3ccn[nH]3)nccc12 320

Next compound up: O=S1(=O)CCCN1c1cc(N2CCOCC2)nc2c(-c3ccn[nH]3)nccc12 1110

Next compound up: C[C@@H]1COCCN1c1cc(OCCCS(C)(=O)=O)c2ccnc(-c3ccn[nH]3)c2n1 516

Next compound up: CS(=O)(=O)c1ccc(-c2cc(N3CCOCC3)nc3c(-c4cc[nH]n4)nccc23)cc1 1020

Next compound up: C[C@@H]1COCCN1c1cc(-c2ccc(F)nc2F)c2ccnc(-c3ccn[nH]3)c2n1 233

Next compound up: Cc1cc(S(C)(=O)=O)ncc1-c1cc(N2CCOC[C@H]2C)nc2c(-c3ccn[nH]3)nccc12 93.7

Next compound up: C[C@@H]1COCCN1c1cc(-c2ccc(S(C)(=O)=O)cc2)c2ccnc(-c3cc[nH]n3)c2n1 586

Next compound up: C[C@@H]1COCCN1c1cc(S(C)(=O)=O)c2ccnc(-c3ccn[nH]3)c2n1 269

Next compound up: CS(=O)(=O)C1(c2cc(N3CCOCC3)nc3c(-c4ccn[nH]4)nccc23)CC1 400

Next compound up: CN=S(C)(=O)c1ccc(-c2cc(N3CCOCC3)nc3c(-c4ccn[nH]4)nccc23)cc1 (centres unmarked) 641

Next compound up: C[C@@H]1COCCN1c1cc(N2CCNCC2)c2ccnc(-c3ccn[nH]3)c2n1 127

Next compound up: CC(C)[S+]([O-])c1cc(N2CCOCC2)nc2c(-c3ccn[nH]3)nccc12 (centres unmarked) 291

Next compound up: C[C@@H]1COCCN1c1cc(C2(S(C)(=O)=O)CC2)c2ccnc(-c3ccn[nH]3)c2n1 75.6

Next compound up: CS(=O)(=O)c1cccc(-c2cc(N3CCOCC3)nc3c(-c4cc[nH]n4)nccc23)c1 528

---

Test system human ATR (Homo sapiens (Human), UniProt Q13535), IC50 listed for each of the compounds.

Quick check: IC50 of CC(C)S(=O)(=Nc1cc(N2CCOC[C@H]2C)nc2c(-c3ccn[nH]3)nccc12)c1ccc(Br)cc1 (some centres unmarked) [Example 275] ? 304 nM

Next compound up: CC1(C)C[C@@H]2C[C@@](C)(CN2c2cc(N3CCOCC3)nc3c(-c4ccn[nH]4)nccc23)C1 (stereo in doubt) [Example 421] 1790 nM

---

Task for the reader: assign each of the following compounds its reported log10 of IC50.
Test system: NCI-H460 cells
assay: Proliferation assay, crystal violet staining
details: Homo sapiens, NCI-H460, 96 h, read-out: Inhibition of NCI-H460 cell proliferation, NCI-H460 cells, 4 days incubation
Structures can show the parent of a compound that is named as a salt.
In our notation, the value equals log10 of IC50 in nM.

Notebook: pull reported log10 of IC50 for NCI-H460 cells, entry N#Cc1cc(N2CCOCC2)nc2c(-c3cc[nH]n3)nccc12 3.21

Next compound up: C[C@@H]1COCCN1c1cc(-c2ccc(S(C)(=N)=O)cc2)c2ccnc(-c3ccn[nH]3)c2n1 (stereo partly drawn) 2.47

Next compound up: Cc1ccc(-c2cc(N3CCOC[C@H]3C)nc3c(-c4ccn[nH]4)nccc23)cn1 1.91

Next compound up: C[C@@H]1COCCN1c1cc(-c2ccn[nH]2)c2ccnc(-c3ccn[nH]3)c2n1 2.34

Next compound up: CCS(=O)(CC)=Nc1cc(N2CCOC[C@H]2C)nc2c(-c3ccn[nH]3)nccc12 1.95

Next compound up: COc1cc(N2CCOCC2)nc2c(-c3cc[nH]n3)nccc12 3.30

Next compound up: c1cc2c(C3CCOCC3)cc(N3CCOCC3)nc2c(-c2cc[nH]n2)n1 2.84

Next compound up: CC(C)Oc1cc(N2CCOCC2)nc2c(-c3cc[nH]n3)nccc12 2.83

Next compound up: CS(=O)(=O)c1ccccc1-c1cc(N2CCOCC2)nc2c(-c3cc[nH]n3)nccc12 [Example 8, Hydrochloride] 2.96

Next compound up: C[C@@H]1COCCN1c1cc(N2CCOCC2)c2ccnc(-c3ccn[nH]3)c2n1 1.96

Next compound up: CSc1cc(N2CCOC[C@H]2C)nc2c(-c3ccn[nH]3)nccc12 2.49

Next compound up: C[C@@H]1COCCN1c1cc(N=S2(=O)CCCC2)c2ccnc(-c3ccn[nH]3)c2n1 2.18

Next compound up: CC(C)S(=O)(=O)c1ccc(-c2cc(N3CCOC[C@H]3C)nc3c(-c4ccn[nH]4)nccc23)cc1 2.83

Next compound up: C[C@@H]1COCCN1c1cc(OCCCCN)c2ccnc(-c3ccn[nH]3)c2n1 2.57

Next compound up: C[C@@H]1COCCN1c1cc(N=S2(=O)CCOCC2)c2ccnc(-c3ccn[nH]3)c2n1 1.97

These measurements were taken from patent US10772893B2.
